The origin of these recorded values is patent US20130315843A1.

- Test target: human TRPV1 (Homo sapiens, UniProt Q8NER1)
- Sequence (Q8NER1 whole entry): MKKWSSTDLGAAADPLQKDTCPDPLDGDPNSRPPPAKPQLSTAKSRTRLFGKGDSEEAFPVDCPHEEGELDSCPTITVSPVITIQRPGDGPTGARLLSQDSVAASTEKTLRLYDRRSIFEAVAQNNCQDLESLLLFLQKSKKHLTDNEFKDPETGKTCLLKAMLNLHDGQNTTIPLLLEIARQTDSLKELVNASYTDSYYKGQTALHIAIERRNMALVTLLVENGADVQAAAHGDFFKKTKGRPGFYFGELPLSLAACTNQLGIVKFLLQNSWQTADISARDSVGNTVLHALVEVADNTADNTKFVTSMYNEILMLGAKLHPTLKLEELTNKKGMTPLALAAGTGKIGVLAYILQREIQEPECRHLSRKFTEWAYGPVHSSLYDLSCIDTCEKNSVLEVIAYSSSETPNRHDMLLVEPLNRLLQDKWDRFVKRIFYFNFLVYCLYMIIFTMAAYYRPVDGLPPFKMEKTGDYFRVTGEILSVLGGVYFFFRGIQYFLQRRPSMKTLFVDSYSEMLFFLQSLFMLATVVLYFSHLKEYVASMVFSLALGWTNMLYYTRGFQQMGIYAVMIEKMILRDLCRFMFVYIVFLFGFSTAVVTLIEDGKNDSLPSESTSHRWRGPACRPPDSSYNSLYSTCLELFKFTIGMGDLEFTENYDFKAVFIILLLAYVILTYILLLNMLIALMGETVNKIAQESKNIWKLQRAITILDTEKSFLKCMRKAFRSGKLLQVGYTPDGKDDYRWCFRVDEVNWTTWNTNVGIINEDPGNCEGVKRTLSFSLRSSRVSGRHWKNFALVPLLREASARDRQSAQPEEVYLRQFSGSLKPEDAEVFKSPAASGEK
- Experimental protocol: FLIPR Ca2+ assay, reduction of capsaicin activation of TRPV1
- Type: cell-based
- Set-up: expressed in transfected cells
- Details: with compound, Dose 4000, 350 nM Capsaicin
Reported Ca++ counts values follow for various compounds
Just the number.

Solved cases below.
Compound: CCCCCC1=C(C)CCC1=O [Dihydrojasmone]
Ca++ counts: 11397
//
Compound: CC(C)C(=O)OCc1ccc2c(c1)OCO2 [Piperonyl Isobutyrate]
Ca++ counts: 10804
//
Compound: Cn1cccc1C=O [1-Methyl-2-pyrole carboxaldehyde]
Ca++ counts: 11516
//
Compound: CCC(C)COC(=O)CC(C)C (centres unmarked) [2-Methylbutyl isovalerate]
Ca++ counts: 11278
//
Compound: CC/C=C/CC1CCCC1=O (centres unmarked) [Jasminone B]
Ca++ counts: 11635

Prompt: Ca++ counts lookup needed for CCCCCC(CC)OC(C)=O (centres unmarked) [3-Octyl Acetate] , thanks.
Response: 12109

Prompt: Ca++ counts lookup needed for CCC(=O)OCCOc1ccccc1 [Phenoxyethyl Propionate] , thanks.
Response: 10922

Prompt: Ca++ counts lookup needed for CCCCCC=CCC1CCCC1=O (centres unmarked) [Octenyl Cyclopentanone] , thanks.
Response: 9378

Prompt: Ca++ counts lookup needed for CC(C)=CC1CC(C)CCO1 (centres unmarked) , thanks.
Response: 11041

Prompt: Ca++ counts lookup needed for CCCN(CCC)CCC [Tripropylamine] , thanks.
Response: 11278

Prompt: Ca++ counts lookup needed for CCCCOC(=O)C(C)C [Butyl Isobutyrate] , thanks.
Response: 11278

###

Reported % Reduction of Hydrogen Peroxide TRPA1 Activation values follow for various compounds
- Test target: human TRPA1 (Homo sapiens, UniProt O75762)
- Sequence (O75762 whole entry): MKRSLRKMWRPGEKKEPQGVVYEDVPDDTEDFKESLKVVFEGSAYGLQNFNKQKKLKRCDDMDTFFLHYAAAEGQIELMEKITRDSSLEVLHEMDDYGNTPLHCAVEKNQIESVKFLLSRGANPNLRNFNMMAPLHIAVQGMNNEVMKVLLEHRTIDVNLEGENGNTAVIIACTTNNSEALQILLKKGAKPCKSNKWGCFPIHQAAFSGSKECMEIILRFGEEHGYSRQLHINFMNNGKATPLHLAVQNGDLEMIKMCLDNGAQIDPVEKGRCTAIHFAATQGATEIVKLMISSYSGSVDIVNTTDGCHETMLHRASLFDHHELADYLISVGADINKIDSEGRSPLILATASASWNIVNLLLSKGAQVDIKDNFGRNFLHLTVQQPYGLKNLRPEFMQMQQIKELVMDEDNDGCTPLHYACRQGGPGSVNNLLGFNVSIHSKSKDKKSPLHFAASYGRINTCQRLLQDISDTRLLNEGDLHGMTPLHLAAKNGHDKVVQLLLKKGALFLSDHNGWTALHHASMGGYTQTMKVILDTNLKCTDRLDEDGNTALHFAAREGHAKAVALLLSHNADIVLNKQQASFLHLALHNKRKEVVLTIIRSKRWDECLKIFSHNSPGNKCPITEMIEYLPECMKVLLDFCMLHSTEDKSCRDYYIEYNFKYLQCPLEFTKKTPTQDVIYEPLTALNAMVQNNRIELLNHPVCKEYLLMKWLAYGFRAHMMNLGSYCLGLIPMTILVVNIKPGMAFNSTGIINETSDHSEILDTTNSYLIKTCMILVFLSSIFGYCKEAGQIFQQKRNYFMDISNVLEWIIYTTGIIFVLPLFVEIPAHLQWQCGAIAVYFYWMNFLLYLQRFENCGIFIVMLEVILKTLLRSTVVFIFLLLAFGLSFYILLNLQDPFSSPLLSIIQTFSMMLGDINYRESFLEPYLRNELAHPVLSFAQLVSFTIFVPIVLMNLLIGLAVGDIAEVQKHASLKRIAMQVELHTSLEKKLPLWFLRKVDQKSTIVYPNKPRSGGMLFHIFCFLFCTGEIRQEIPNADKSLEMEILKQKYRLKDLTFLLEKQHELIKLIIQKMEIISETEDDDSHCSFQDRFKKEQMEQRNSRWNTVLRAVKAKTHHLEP
- Experimental protocol: FLIPR Ca2+ assay, reduction of hydrogen peroxide activation of TRPA1
- Type: cell-based
- Set-up: expressed in transfected cells
- Details: antagonist 400 μM against 200 μM hydrogen peroxide
Give the quantity in %, number only.

Compound: C[C@H]1CC[C@]2(O1)C(C)(C)CCC[C@]2(C)O [Hydroxydihydrotheaspirane]
Units symbol: %
Numeric value: 57
//
Compound: Cn1cccc1C=O
Units symbol: %
Numeric value: 42
//
Compound: CCCC(=O)OCc1ccc(OC)cc1 [Anisyl Butyrate]
Units symbol: %
Numeric value: 54

Would you kindly look at the next entry?
Prompt: % Reduction of Hydrogen Peroxide TRPA1 Activation lookup needed for COC(=O)CCCc1ccccc1 [Methyl-4-phenyl butyrate] , thanks.
Response: 60

###

Reported Average Ca2+ Counts values follow for various molecules
- Test target: human TRPV1 (Homo sapiens)
- Experimental protocol: FLIPR Ca2+ assay, reduction of L-Menthol activation of TRPV1
- Details: antagonist 100 μM against 1 mM L-Menthol
Structures can show the parent of a compound that is named as a salt.
Number plus unit, in that order.

Solved cases below.
Molecule: Cc1cc(S)c(C)o1
Average Ca2+ Counts: 1443.0 Counts
//
Molecule: Cc1ccc(C)c(O)c1C
Average Ca2+ Counts: 1339.3 Counts
//
Molecule: CCC/C=C/C(OCC)OCC [trans-2-hexen-1-al diethyl acetal]
Average Ca2+ Counts: 1169.0 Counts
//
Molecule: SCCc1cnccn1
Average Ca2+ Counts: 992.0 Counts
//
Molecule: CC(C)CCOC=O [isopentyl formate]
Average Ca2+ Counts: 1451.7 Counts

Prompt: Average Ca2+ Counts lookup needed for CC(=O)OCC1=CCC2CC1C2(C)C (centres unmarked) , thanks.
Response: 1448.3 Counts

Prompt: Average Ca2+ Counts lookup needed for CSC(C)C(C)=O (centres unmarked) , thanks.
Response: 1554.0 Counts

Prompt: Average Ca2+ Counts lookup needed for CCOc1ccc(C=O)cc1 , thanks.
Response: 1200.0 Counts

Prompt: Average Ca2+ Counts lookup needed for CC1(C)C2CC[C@@]1(C)C(=O)C2 [(1r)-(+)-camphor] , thanks.
Response: 2807.0 Counts

Prompt: Average Ca2+ Counts lookup needed for COC(=O)c1ccccc1NC(C)=O [methyl 2-(acetylamino)benzoate] , thanks.
Response: 1178.3 Counts

Prompt: Average Ca2+ Counts lookup needed for Cc1nc(C)c(C)nc1C , thanks.
Response: 972.0 Counts

###

Reported % Reduction of L-Menthol TRPV1 Activation values follow for various compounds
- Test target: human TRPV1 (Homo sapiens, UniProt Q8NER1)
- Experimental protocol: FLIPR Ca2+ assay, reduction of L-Menthol activation of TRPV1
- Details: antagonist 100 μM against 1 mM L-Menthol
Give the quantity in %, number only.

Solved cases below.
Compound: CCOC(=O)C1OC1(C)c1ccccc1 (stereo not drawn)
Numeric value: 38.1
--
Compound: C=C1CC/C=C(\C)CC[C@@H]2[C@@H]1CC2(C)C
Numeric value: 32.0
--
Compound: CC(=O)C=O
Numeric value: 22.3
--
Compound: CCOC(=O)C1OC1c1ccccc1 (stereo not drawn) [ethyl 3-phenylglycidate]
Numeric value: 50.8
--
Compound: O=C1O[C@H]([C@@H](O)CO)C([O-])=C1O.[Na+] [(+)-sodium 1-ascorbate]
Numeric value: 26.6

Prompt: % Reduction of L-Menthol TRPV1 Activation lookup needed for CC(=O)OCC1=CCC2CC1C2(C)C (stereo not drawn) , thanks.
Response: 24.9

###

- Test target: human TRPV1 (Homo sapiens, UniProt Q8NER1)
- Experimental protocol: FLIPR Ca2+ assay, reduction of capsaicin activation of TRPV1
- Format: cell-based
- Parameters: expressed in transfected cells
- Details: Dose 4000
- Description: Cells were detached with addition of 10 ml of PBS (phosphate buffered saline) by hand shaking gently. Cells were transferred to a 50 ml tube and centrifuged at 850 rpm for 3 minutes to remove PBS. The pelleted cells were re-suspended in 10 ml assay buffer and 90 μl aliquots (˜50,000 cells) per well delivered to a 96-well assay plate containing 10 μl of test compounds ([…]) or buffer control and incubated at room temperature for 30 minutes.
Reported % inhibition of TRPV1 activation by 350 nM Capsaicin values follow for various compounds
Give the quantity in %, number only.

Compound: CCCCCC=CCC1CCCC1=O (stereo not shown)
Test target: human TRPV1 (Homo sapiens, UniProt Q8NER1)
Numeric value: 1
//
Compound: CC/C=C/CC1CCCC1=O (stereo not shown)
Test target: human TRPV1 (Homo sapiens, UniProt Q8NER1)
Numeric value: 2

Prompt: % inhibition of TRPV1 activation by 350 nM Capsaicin lookup needed for Cn1cccc1C=O , thanks.
Response: 3

Prompt: % inhibition of TRPV1 activation by 350 nM Capsaicin lookup needed for CCCCCC1=C(C)CCC1=O [Dihydrojasmone] , thanks.
Response: 4

###

Reported Average Ca2+ Counts values follow for various compounds
- Test target: human TRPV1 (Homo sapiens, UniProt Q8NER1)
- Experimental protocol: FLIPR Ca2+ assay, reduction of L-Menthol activation of TRPV1
- Details: antagonist 100 μM against 1 mM L-Menthol
Give the quantity in Counts, number only.

Compound: CCOC(=O)CC [ethyl propionate]
Test target: human TRPV1 (Homo sapiens, UniProt Q8NER1)
Average Ca2+ Counts [Counts]: 2712.0

Compound: O=C(O)c1ccc(O)cc1O
Test target: human TRPV1 (Homo sapiens, UniProt Q8NER1)
Average Ca2+ Counts [Counts]: 1317.3

Compound: COc1cccc(OC)c1O
Test target: human TRPV1 (Homo sapiens, UniProt Q8NER1)
Average Ca2+ Counts [Counts]: 1365.0

Compound: C=CCSCC=C [diallyl sulfide]
Test target: human TRPV1 (Homo sapiens, UniProt Q8NER1)
Average Ca2+ Counts [Counts]: 1293.3

Compound: [Cu+].[I-] [copper(i) iodide]
Test target: human TRPV1 (Homo sapiens, UniProt Q8NER1)
Average Ca2+ Counts [Counts]: 651.5

Prompt: Average Ca2+ Counts lookup needed for CCCCC/C=C/C(=O)OC [methyl trans-2-octenoate] , thanks.
Response: 1538.7

Prompt: Average Ca2+ Counts lookup needed for CC(O)C(C)S (stereo not shown) , thanks.
Response: 1008.3

Prompt: Average Ca2+ Counts lookup needed for CCC/C=C/COC(C)=O [trans-2-hexenyl acetate] , thanks.
Response: 1119.0

Prompt: Average Ca2+ Counts lookup needed for C=Cc1scnc1C , thanks.
Response: 1227.7

Prompt: Average Ca2+ Counts lookup needed for CSCCCN=C=S [3-(methylthio)propyl isothiocyanate] , thanks.
Response: 1426.7

Prompt: Average Ca2+ Counts lookup needed for CCCOC(=O)C(C)=O [propyl pyruvate] , thanks.
Response: 2386.5

Prompt: Average Ca2+ Counts lookup needed for COC(=O)CCSC [methyl 3-(methylthio)propionate] , thanks.
Response: 998.7

###

- Test target: human TRPA1 (Homo sapiens, UniProt O75762)
- Experimental protocol: FLIPR Ca2+ assay, reduction of hydrogen peroxide activation of TRPA1
- Format: cell-based
- Set-up: expressed in transfected cells
- Details: compound 100 μM against 200 μM hydrogen peroxide; Sets 1-4
Binary classification by Average Ca++ Counts, with 3000 Counts as an inclusive lower bound for Satisfied; all other cases are Not satisfied.

Observe how each entry below is paired with its result.
Compound: O=C(CCl)c1ccccc1
Test target: human TRPA1 (Homo sapiens, UniProt O75762)
Category: Not satisfied
--
Compound: CC=C(C=O)c1ccccc1
Test target: human TRPA1 (Homo sapiens, UniProt O75762)
Category: Satisfied
--
Compound: CC(=O)C(C)O (stereo not shown)
Test target: human TRPA1 (Homo sapiens, UniProt O75762)
Category: Satisfied
--
Compound: CCCC=O
Test target: human TRPA1 (Homo sapiens, UniProt O75762)
Category: Satisfied
--
Compound: C/C=C(\C)C(=O)OCc1ccccc1 [benzyl tiglate]
Test target: human TRPA1 (Homo sapiens, UniProt O75762)
Category: Not satisfied
--
Compound: CC(S)CS (stereo not shown)
Test target: human TRPA1 (Homo sapiens, UniProt O75762)
Category: Not satisfied

Prompt: Reported Average Ca++ Counts at or above 3000 Counts? CCC(S)C(C)=O (stereo not shown)
Response: Not satisfied

Prompt: Reported Average Ca++ Counts at or above 3000 Counts? O=C(C=Cc1ccccc1)OCc1ccccc1 [benzyl cinnamate]
Response: Satisfied

Prompt: Reported Average Ca++ Counts at or above 3000 Counts? c1ccc2scnc2c1
Response: Satisfied
